- System: SK-OV-3 ovarian
- measurement_notes: NCI-60 one-dose screen, 48 h
- conditions_used: 10 µM unless noted
About 83,000 compounds went through this panel and 20% of them were active in at least one assay; those are over-represented in the sample as a whole. Active and inactive are the calls of the source. The calls were made as follows: active = growth percent below 10; inactive = the rest.
Classes used: active, inactive

{"compound": "N#C/C(=C\\c1ccc(Br)cc1)n1nnc2cccc(F)c21", "qualitative_label": "inactive"}
{"compound": "CCN(CC)CCCC(C)Nc1cc(-c2cccc(OC(F)(F)F)c2)nc2ccc(N3CCCC3)cc12 (stereo unspecified)", "qualitative_label": "inactive"}
{"compound": "CN1CCN(c2cc(F)c(NC3=C(Cl)C(=O)c4ncccc4C3=O)c(F)c2)CC1", "qualitative_label": "inactive"}
{"compound": "O=C(Nc1ccc(F)cc1)c1c(NC(=O)C(F)(F)F)sc2c1CCCCC2", "qualitative_label": "active"}
{"compound": "COc1cc(/C=C/C(=O)c2ccc(Nc3ncnc4ccccc34)cc2)cc(OC)c1", "qualitative_label": "inactive"}
{"compound": "CC(C)(O)C1CCCN1C(=O)c1ccccc1I (stereo unspecified)", "qualitative_label": "inactive"}
{"compound": "Fc1cc(C2=NNC(c3ccc[nH]3)C2)ccc1-n1ccc(C(F)(F)F)n1 (stereo unspecified)", "qualitative_label": "inactive"}
{"compound": "CCCCN(CCCC)CCc1c(C)cc(C)c(CCN(CCCC)CCCC)c1O", "qualitative_label": "inactive"}
{"compound": "CCCCCCOc1ccc(/C=N/Nc2cc(C)nc3ccc(Br)cc23)cc1", "qualitative_label": "inactive"}
{"compound": "C=CCn1c(SCC(=O)Nc2ccc(C(=O)/C=C/c3cc(OC)c(OC)c(OC)c3)cc2)nnc1-c1cc(OC)c(OC)c(OC)c1", "qualitative_label": "inactive"}
{"compound": "C#CCNC(=O)[C@H](Cc1ccccc1)NC(=O)[C@]12CC[C@@H](C(=C)C)[C@@H]1[C@H]1CC[C@@H]3[C@@]4(C)Cc5c([nH]c6ccccc56)C(C)(C)[C@@H]4CC[C@@]3(C)[C@]1(C)CC2", "qualitative_label": "inactive"}
{"compound": "CCn1ccnc1C(=O)/C=C/c1ccc(CC(=O)Nc2ccc(F)cc2)cc1", "qualitative_label": "inactive"}
{"compound": "O=C(Nc1cccc(C2=NCCN2)c1)c1ccc(OCCCOc2ccc(C(=O)Nc3cccc(C4=NCCN4)c3)cc2)cc1", "qualitative_label": "inactive"}
{"compound": "c1ccc(-c2nnc(Nc3ccc4c(c3)OCCO4)o2)c(NCc2ccncc2)c1", "qualitative_label": "active"}
{"compound": "Cc1cc(C)c(C=O)c(C)c1", "qualitative_label": "inactive"}
{"compound": "O=C1Nc2c(ccc(Cl)c2Cl)/C1=C/c1ccc(O)cc1", "qualitative_label": "inactive"}
{"compound": "CC(C)CCSc1nc(NNC(N)=O)c(C#N)c(-c2ccccc2)n1", "qualitative_label": "inactive"}
{"compound": "NC(=O)CN1CCN(c2ccccc2Cl)CC1", "qualitative_label": "inactive"}
{"compound": "COC(=O)C(c1ccccc1)C(CC(=O)c1ccccc1)c1ccccc1 (stereo unspecified)", "qualitative_label": "inactive"}
{"compound": "O=C(Nc1nc2ccc(S(=O)(=O)Nc3ccc(C4(C(F)(F)F)CC4)cc3)cc2[nH]1)c1cnccn1", "qualitative_label": "inactive"}
{"compound": "CCCCCCCCCCCCCCCCCCOc1ccccc1N", "qualitative_label": "inactive"}
{"compound": "CCc1c(Nc2ccc(C)cc2)[nH]c(N)nc1=S", "qualitative_label": "inactive"}
{"compound": "COc1ccc(-c2nc3sccn3c2/C=C/C(=O)c2cc(OC)c(OC)c(OC)c2)cc1", "qualitative_label": "inactive"}
{"compound": "CCN(CC)CCCCCCNc1cc(OC)cc2cccnc12", "qualitative_label": "inactive"}
{"compound": "CCCCc1ccc(Nc2nnc(SCC(=O)NC(=O)NCC)s2)cc1", "qualitative_label": "inactive"}
{"compound": "CCN(CC)CCSCCCNc1c(C)cnc2cc(Cl)ccc12", "qualitative_label": "inactive"}
